Collected literature values of pIC50 measured for UniProt:P19327.
Biological target: UniProt:P19327
Sequence (P19327 whole entry): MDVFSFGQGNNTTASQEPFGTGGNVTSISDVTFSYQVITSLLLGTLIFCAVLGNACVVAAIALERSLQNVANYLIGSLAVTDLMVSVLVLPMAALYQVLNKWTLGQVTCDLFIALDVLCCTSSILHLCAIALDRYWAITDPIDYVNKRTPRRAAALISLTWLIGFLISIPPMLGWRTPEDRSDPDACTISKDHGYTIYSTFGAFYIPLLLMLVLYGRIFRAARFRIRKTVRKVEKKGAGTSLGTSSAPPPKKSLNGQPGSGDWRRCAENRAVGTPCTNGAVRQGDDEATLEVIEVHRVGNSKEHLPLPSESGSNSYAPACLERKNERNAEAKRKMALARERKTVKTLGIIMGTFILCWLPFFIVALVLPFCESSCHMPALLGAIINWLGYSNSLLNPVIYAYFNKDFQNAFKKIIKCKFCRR
pIC50: −log10 of the molar value.
Grouping key: pIC50. Bins: range A: < 7; range B: ≥ 7 and < 8; range C: ≥ 8

Known results for molecules:
O=C1c2ccccc2C(=O)N1CC#CCN1CCN(c2nsc3ccccc23)CC1 :: range A
Cn1ncc2c(c1=O)OCCCN2C(=O)CCNCCOc1ccccc1 :: range A
COc1cccc2c1C(CCCN1CCN(c3cccc(Cl)c3)CC1)=CCC2 :: range B
Cl.[N-]=[N+]=Nc1ccccc1C(=O)NCCCCN1CCN(c2nsc3ccccc23)CC1 :: range C
COc1ccccc1N1CCN(CCCCN2CSC(C)C2=O)CC1 (stereo not given) :: range A
COc1ccc(-c2cccc(CN3CCN(c4ncccn4)CC3)c2)cc1 :: range A
COc1ccccc1OCCN(CCC(=O)N1CCCOc2c1cnn(C)c2=O)Cc1ccccc1 :: range A
CC(C)(C)c1ccc(C(=O)NCCCCN2CCN(c3nsc4ccccc34)CC2)cc1.Cl :: range A

Hey, which category is COc1ccccc1N1CCN(CCC[C@@H]2CCCc3c(OC)cccc32)CC1 in, do you know?
range C

Hey, which category is COc1ccc2c(c1)C(CCCN1CCN(c3ccccn3)CC1)CCC2 (stereo not given) in, do you know?
range C

###

Collected literature values of pIC50 measured for 5-hydroxytryptamine receptor 1A (Rattus norvegicus).
Target: 5-hydroxytryptamine receptor 1A (Rattus norvegicus)
Sequence (P19327 whole entry): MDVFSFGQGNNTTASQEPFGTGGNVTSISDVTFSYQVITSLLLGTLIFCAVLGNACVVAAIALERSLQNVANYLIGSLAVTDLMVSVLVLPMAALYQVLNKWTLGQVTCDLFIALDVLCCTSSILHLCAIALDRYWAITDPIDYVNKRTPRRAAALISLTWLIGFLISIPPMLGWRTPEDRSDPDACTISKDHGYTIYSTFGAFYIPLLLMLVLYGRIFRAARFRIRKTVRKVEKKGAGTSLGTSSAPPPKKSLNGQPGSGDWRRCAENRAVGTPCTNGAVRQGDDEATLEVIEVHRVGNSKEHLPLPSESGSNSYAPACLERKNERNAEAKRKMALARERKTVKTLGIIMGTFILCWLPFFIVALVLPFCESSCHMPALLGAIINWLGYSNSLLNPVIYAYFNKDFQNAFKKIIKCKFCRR
pIC50: −log10 of the molar value.
Label rule, in plain words: pIC50 of 8 and up is yes, under 8 is no.

COc1ccccc1-c1cccc(CN2CCN(c3ncccn3)CC2)c1 :: no
O=C1N(CCCCN2CCN(c3nsc4ccccc34)CC2)CSC12CCCCC2 :: yes

Given COc1ccccc1N1CCN(CCCON2C(=O)CC3(CCCC3)CC2O)CC1 (stereo unspecified) , state whether its pIC50 is at least 8.
no

Given FC(F)(F)c1ccc(N2CCN(Cc3cn(-c4ccccc4)c(-c4ccccc4)n3)CC2)cc1 , state whether its pIC50 is at least 8.
no

Given Oc1nc2ccc(CCN3CCN(c4cccc5ccccc45)CC3)cc2s1 , state whether its pIC50 is at least 8.
yes

Given FC(F)(F)c1cccc(N2CCN(Cc3cn(-c4ccccc4)c(-c4ccccc4)n3)CC2)c1 , state whether its pIC50 is at least 8.
no

Given O=C1N(CCCCN2CCN(c3nsc4ccccc34)CC2)CSC12CCCC2 , state whether its pIC50 is at least 8.
yes

Given COc1c(Cl)cc(N2CCN(CCCCc3c[nH]c4ccc(C(N)=O)cc34)CC2)cc1Cl , state whether its pIC50 is at least 8.
yes

Given COc1ccc(NC(=O)N2CCN(CCCCc3c[nH]c4ccc(F)cc34)CC2)cc1N1CCN(C)CC1 , state whether its pIC50 is at least 8.
no

Given COc1ccc2c(c1)C(CCCN1CCN(c3ccccc3OC)CC1)=CCC2 , state whether its pIC50 is at least 8.
yes

Given Cn1ncc2c(c1=O)SCCCN2C(=O)CNCC1COc2ccccc2O1 (stereo unspecified) , state whether its pIC50 is at least 8.
no

Given COc1ccc(N2CCN(CCCCc3c[nH]c4ccc(OCc5ccccc5)cc34)CC2)cc1 , state whether its pIC50 is at least 8.
no

Given O=C1CC2(CCCC2)CC(=O)N1OCCCN1CCN(c2cccc(C(F)(F)F)c2)CC1 , state whether its pIC50 is at least 8.
no

Given COc1ccccc1N1CCN(CCSC2CCCc3c(OC)cccc32)CC1 (stereo unspecified) , state whether its pIC50 is at least 8.
yes

Given COc1ccccc1N1CCN(CCCNC(=O)c2nsc3ccccc23)CC1 , state whether its pIC50 is at least 8.
no

Given OC1(c2ccc3c(c2)OCO3)CCC(N2CCN(Cc3cccc(Br)c3)CC2)CC1 (stereo unspecified) , state whether its pIC50 is at least 8.
yes

Given O=C1c2ccccc2CN1CCN1CCN(c2nsc3ccccc23)CC1 , state whether its pIC50 is at least 8.
no

Given CC1SC(C)(C)C(=O)N1CCCCN1CCN(c2csc3cc(F)ccc23)CC1 (stereo unspecified) , state whether its pIC50 is at least 8.
no
